system: DU-145 prostate; test: NCI tumour cell line growth inhibition, 48 h
observable: TGI

COC(=O)C1=C2SCc3ccc(cc3)CSC3=C(C(=O)OC)SC(=C(S2)S1)S3 :: > 100 µM
CCOC(=O)/C=C/C1=C(c2csc3ccccc23)c2ccccc2CC1 :: > 100 µM

We next turn to a different compound, shown below.
Entry Cc1ccc(C2c3c(n(C)c(=O)n(C)c3=O)OC(N(C)C)(N(C)C)C2(F)F)cc1 (stereo not drawn) ; TGI = > 100 µM

###

system: ACHN renal; assay: NCI tumour cell line growth inhibition, 48 h; in the data active means GI50 below about 0.43 µM; inactive means the rest
Assign a class; possible classes are class 1 = active, class 0 = inactive

COc1ccc(/C=N/C2=C(C#N)C(c3ccccc3)c3c(ccc4ccccc34)O2)cc1 (stereo not drawn) :: class 0

What did the test return for CC(=O)c1cc2c(c(O)c1C)C(=O)C(=O)c1c(O)cccc1-2 ?
class 1

What did the test return for Cc1ccc(-c2cc(C(=O)N3N=C(c4ccc(N)cc4)CC3c3ccc(Cl)cc3)c3ccccc3n2)cc1 (stereo not drawn) ?
class 0
